target: PKA (Homo sapiens)
Quantity: IC50

Please give the documented IC50 of NC(=O)c1nc(-c2cccc3ccccc23)cnc1N [Example 2] 1 to 10 µM

###

Target: Chk1 (Homo sapiens, UniProt O14757)
Construct: purchased Upstate Biotechnology
Sequence (O14757 1-476): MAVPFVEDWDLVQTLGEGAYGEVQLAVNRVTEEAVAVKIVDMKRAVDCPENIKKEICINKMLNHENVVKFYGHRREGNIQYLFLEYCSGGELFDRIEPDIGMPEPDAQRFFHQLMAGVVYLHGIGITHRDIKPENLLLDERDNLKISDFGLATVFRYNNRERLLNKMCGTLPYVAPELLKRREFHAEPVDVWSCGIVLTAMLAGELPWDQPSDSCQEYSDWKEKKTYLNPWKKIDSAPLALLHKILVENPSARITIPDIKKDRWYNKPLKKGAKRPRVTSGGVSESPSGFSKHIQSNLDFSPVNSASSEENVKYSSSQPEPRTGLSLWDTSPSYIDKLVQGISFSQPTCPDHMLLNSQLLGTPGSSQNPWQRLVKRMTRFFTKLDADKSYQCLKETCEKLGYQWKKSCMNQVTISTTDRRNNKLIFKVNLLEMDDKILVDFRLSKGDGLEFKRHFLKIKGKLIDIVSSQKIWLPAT
Assay: Chk1 kinase assay: incorporation of γ-33P ATP into immobilized myelin basic protein
Type: biochemical
Conditions: Table 11; Chk1 only; read-out: Chk1 IC50
Description: Chk1 and Chk2 assays were performed by measuring incorporation of γ-^33P ATP into immobilized myelin basic protein (MBP). […] Each data point was measured in duplicate, and at least two duplicate assays were performed for each individual compound determination. […] The above assay procedure can be used to determine the IC50 for inhibition and/or the inhibition constant Ki. […] The Ki for a compound may be determined from the IC50 based on three assumptions. […]
Quantity: IC50

See these solved cases before continuing.
1. Nc1ncc(-c2cccc(CO)c2)nc1-c1nc(-c2cccs2)n[nH]1    50 to 1000 nM
2. CC(C)(C)OC(=O)N1CCCC(NC(=O)c2nc(-c3cccc(C(=O)N[C@H]4CCc5ccccc54)c3)cnc2N)CC1 (stereo partly shown)    ≥ 10000 nM
3. CCN1CCCC(NC(=O)c2nc(-c3cccc(C(=O)N[C@H]4CCc5ccccc54)c3)cnc2N)C1 (stereo partly shown)    50 to 1000 nM

Would you kindly look at the next entry?
Answer with the recorded IC50 for the compound listed here: `Nc1ncc(-c2cccc(C(=O)NCc3ccccc3)c2)nc1C(=O)NCCNC(=O)c1ccncc1` 1000 to 10000 nM

###

target: Chk1 (Homo sapiens); construct: purchased Upstate Biotechnology; assay: Chk1 kinase assay: incorporation of γ-33P ATP into immobilized myelin basic protein; assay type: biochemical; conditions: Table 11; Chk1 only; read-out: Chk1 IC50
Quantity: IC50

Worked cases, answers included:
1. Nc1ncc(-c2cccc(C(=O)NCc3ccccc3)c2)nc1C(=O)NCCCNC(=O)c1cnc2ccccc2n1    ≥ 10000 nM
2. Nc1ncc(-c2cccc(C(=O)N[C@H]3CCc4ccccc43)c2)nc1C(=O)NC1CCCNCC1 (stereo partly shown)    50 to 1000 nM
3. Nc1ncc(-c2cccc(C(=O)NCc3ccccc3)c2)nc1C(=O)NCC1CCNCC1    50 to 1000 nM
4. N=C(NNc1nc2ccccc2s1)c1nc(-c2cccc(C(=O)NCc3ccccc3)c2)cnc1N    ≥ 10000 nM
5. CNC(=O)c1nc(-c2cccc(CNC3CCc4cc(OCC#N)ccc43)c2)cnc1N (stereo not shown)    50 to 1000 nM

Name the recorded IC50 of the compound listed here: `C/C(=N\Nc1ccc(C(=O)O)cc1)c1nc(-c2cccc(C(=O)NCc3ccccc3)c2)cnc1N` 1000 to 10000 nM

Input CNC(=O)c1nc(-c2ccc3c(c2)C(N[C@H]2CCc4ccccc42)CC3)cnc1N (stereo partly shown) , output reported IC50. < 50 nM

# return recorded IC50 for input `CNC(=O)c1nc(-c2cccc(CN[C@H]3CCc4cc(F)cc(F)c43)c2)cnc1N` 50 to 1000 nM

Quote IC50 reported for `CC(=NNc1ccc([N+](=O)[O-])cc1)c1nc(-c2cccc(C(=O)NCc3ccccc3)c2)cnc1N` please. ≥ 10000 nM

Note down IC50 recorded for `Nc1ncc(-c2cccc(CO)c2)nc1-c1nc([C@H]2CCCNC2)n[nH]1` 50 to 1000 nM

###

Parameter IC50: see the listing below.
biological target: Chk1 (Homo sapiens, UniProt O14757); construct: purchased Upstate Biotechnology; assay: Chk1 kinase assay: incorporation of γ-33P ATP into immobilized myelin basic protein; assay type: biochemical; conditions: Table 11; Chk1 only; read-out: Chk1 IC50

1) CNC(=O)c1nc(-c2cccc(C(=O)NNc3cc(F)ccc3F)c2)cnc1N    0.05 to 1 µM

Provide one value: measured IC50 of `Nc1ncc(-c2cccc(C(=O)NCc3ccccc3)c2)nc1C(=O)c1ccc(Cl)c(F)c1` ≥ 10 µM

Output IC50 of `Nc1ncc(-c2cccc(C(=O)N[C@H]3CCc4ccccc43)c2)nc1C(=O)N[C@H]1CCN(C(=O)c2ccncc2)C1` ≥ 10 µM

###

This listing pairs compounds with measured IC50.
molecular target: Chk1 (Homo sapiens); construct: purchased Upstate Biotechnology; assay: Chk1 kinase assay: incorporation of γ-33P ATP into immobilized myelin basic protein; assay type: biochemical; settings: Table 11; Chk1 only; read-out: Chk1 IC50

Observe how each entry below is paired with its result.
1. Nc1ncc(-c2cccc(CO)c2)nc1-c1nc(-c2ccc(Cl)cc2)n[nH]1    ≥ 10 µM
2. CC(C)(C)OC(=O)N1CCC[C@H](NC(=O)c2nc(-c3cccc(C(=O)N[C@H]4CCc5ccccc54)c3)cnc2N)C1    0.05 to 1 µM
3. CNC(=O)c1nc(-c2cccc(CNC3CCc4c(-c5ccccc5)cccc43)c2)cnc1N (stereo not shown)    < 0.05 µM

Complete the entry with IC50 for `N=C(NNc1nccc(C(F)(F)F)n1)c1nc(-c2cccc(C(=O)NCc3ccccc3)c2)cnc1N` 1 to 10 µM

Given `CC(C)(C)OC(=O)N1CC[C@H](NC(=O)c2nc(-c3cccc(C(=O)NCc4cccnc4)c3)cnc2N)C1` , respond with its IC50. 1 to 10 µM

Provide IC50 value for the following compound: CNC(=O)c1nc(-c2cccc(CNC3CCc4c(F)cc(F)cc43)c2)cnc1N (stereo not shown) 0.05 to 1 µM

Note IC50 for the compound shown: `CN1CC[C@H](NC(=O)c2nc(-c3cccc(C(=O)N[C@H]4CCc5ccccc54)c3)cnc2N)C1` 0.05 to 1 µM

###

Listing of entries alongside the reported IC50.
Target: Chk1 (Homo sapiens, UniProt O14757)
Construct: purchased Upstate Biotechnology
Assay: Chk1 kinase assay: incorporation of γ-33P ATP into immobilized myelin basic protein
Type: biochemical
Conditions: Table 11; Chk1 only; read-out: Chk1 IC50
Description: Chk1 and Chk2 assays were performed by measuring incorporation of γ-^33P ATP into immobilized myelin basic protein (MBP). […] Each data point was measured in duplicate, and at least two duplicate assays were performed for each individual compound determination. […] The above assay procedure can be used to determine the IC50 for inhibition and/or the inhibition constant Ki. […] The Ki for a compound may be determined from the IC50 based on three assumptions. […]

Illustrative cases are given below, each with its answer.
1. CNC(=O)c1nc(-c2cccc(C(=O)NNc3c(F)c(F)c(C)c(F)c3F)c2)cnc1N [Example 431]    0.05 to 1 µM
2. CNC(=O)c1nc(-c2cccc(CNC3CCc4cccc(F)c43)c2)cnc1N (stereo not shown) [Example 502]    0.05 to 1 µM
3. CNC(=O)c1nc(-c2cccc(CN[C@@H]3CCc4ccccc4C3)c2)cnc1N [Example 445]    < 0.05 µM
4. CNC(=O)c1nc(-c2cccc(CN[C@H]3CCN(Cc4ccccc4)C3)c2)cnc1N [Example 437]    0.05 to 1 µM
5. Nc1ncc(-c2cccc(CN[C@H]3CCc4ccccc43)c2)nc1C(=O)NCCCCO [Example 539]    0.05 to 1 µM

Read off the recorded IC50 for CC(C)(C)OC(=O)N1CC[C@@H](CNC(=O)c2nc(-c3cccc(C(=O)N[C@@H]4c5ccccc5C[C@@H]4O)c3)cnc2N)C1 [Example 769] ≥ 10 µM

Quote IC50 reported for Nc1ncc(-c2cccc(CN[C@H]3CCc4ccccc43)c2)nc1C(=O)NCCN1CCOCC1 [Example 542] please. 1 to 10 µM

Entry C/C(=N\Nc1ccc(C#N)cc1)c1nc(-c2cccc(C(=O)NCc3ccccc3)c2)cnc1N [Example 631] needs its IC50 filled in; supply it. ≥ 10 µM

###

molecular target: Chk1 (Homo sapiens); construct: purchased Upstate Biotechnology; experiment: Chk1 kinase assay: incorporation of γ-33P ATP into immobilized myelin basic protein; type: biochemical; settings: read-out: Chk1 IC50
As shown below, each of these compounds has a reported IC50 value.

Some solved cases for reference:
1) CNC(=O)c1nc(-c2cccc(C(=O)NCC3CCCN3C(=O)OC(C)(C)C)c2)cnc1N (stereo not shown) [Example 365]    1000 to 10000 nM
2) CNC(=O)c1nc(-c2cccc(CNC(=O)Cc3ccc(Cl)cc3)c2)cnc1N [Example 331]    50 to 1000 nM
3) CNC(=O)c1nc(-c2ccc(F)c(C(=O)NCc3ccccc3)c2)cnc1N [Example 291]    50 to 1000 nM

Continue with the next compound.
Using the record for CNC(=O)c1nc(-c2cccc(CNCc3ccccc3-c3ccccc3)c2)cnc1N [Example 383] , state its measured IC50. 50 to 1000 nM
